Cited source: patent US20080299072A1

Target: T1, CCR1 (UniProt P32246 1-355, limits assumed)
T1 construct: whole, on cells; Membrane preparation of CHO transfectants; also called CCR1-expressing CHO membranes
T1 sequence (looked up): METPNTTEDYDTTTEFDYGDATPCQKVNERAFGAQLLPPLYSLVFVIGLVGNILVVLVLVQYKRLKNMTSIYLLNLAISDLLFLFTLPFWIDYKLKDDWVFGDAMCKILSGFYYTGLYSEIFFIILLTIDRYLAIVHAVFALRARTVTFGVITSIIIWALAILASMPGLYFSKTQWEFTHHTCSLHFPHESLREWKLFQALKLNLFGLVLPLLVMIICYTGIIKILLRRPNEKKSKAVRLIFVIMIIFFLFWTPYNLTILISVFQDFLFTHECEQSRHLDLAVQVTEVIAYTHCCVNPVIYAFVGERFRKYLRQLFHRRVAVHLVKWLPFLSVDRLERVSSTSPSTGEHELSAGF
Test: competition SPA, displacement of 125I-MIP-1α from CCR1 CHO membranes (FIG. 1)
pIC50: −log10 of the molar value.
Classify by measured pIC50: true if it is equal to or exceeds 7, false if it is smaller.

BINDER: S1C-5 kDaPEG-RANTES (ligand, Expressed without a leader; also called S1C-5 kDa-RANTES) C(mPEG‑MAL 5 kDa)PYSSDTTPCCFAYIARPLPRAHIKEYFYTSGKCSNPAVVFVTRKNRQVCANPEKKWVREYINSLEMS
CLASSIFICATION: false

BINDER: PEG-5 kDa-RANTES (ligand, also called N-terminal PEGylated wt RANTES (5 kDa)) {mPEG‑ButyrALD 5 kDa}-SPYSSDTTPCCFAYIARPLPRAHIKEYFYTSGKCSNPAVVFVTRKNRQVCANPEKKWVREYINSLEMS
CLASSIFICATION: true

BINDER: PEG-2 kDa-RANTES (ligand, also called N-terminal PEGylated wt RANTES (2 kDa)) {mPEG‑ButyrALD 2 kDa}-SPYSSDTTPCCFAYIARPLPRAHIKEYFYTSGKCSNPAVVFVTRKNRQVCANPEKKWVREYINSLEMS
CLASSIFICATION: true
